system under test: MMP-1FL (full-length interstitial collagenase) (Homo sapiens)
Sequence (P03956 100-469): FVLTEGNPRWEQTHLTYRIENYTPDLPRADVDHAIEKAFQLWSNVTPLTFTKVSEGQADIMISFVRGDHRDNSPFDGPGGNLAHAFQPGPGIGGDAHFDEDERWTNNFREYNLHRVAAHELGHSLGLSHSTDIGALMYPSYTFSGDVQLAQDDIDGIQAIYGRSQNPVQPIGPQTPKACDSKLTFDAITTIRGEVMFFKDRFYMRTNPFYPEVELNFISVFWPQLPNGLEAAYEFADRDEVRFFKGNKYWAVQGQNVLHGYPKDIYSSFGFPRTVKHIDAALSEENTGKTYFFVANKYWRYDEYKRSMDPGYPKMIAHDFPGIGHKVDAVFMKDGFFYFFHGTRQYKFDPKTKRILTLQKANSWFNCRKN
assay remarks: Thiopeptolide hydrolysis assay, MMP-1
Assay type: biochemical
experimental setup: Table 1b; read-out: MMP01 IC50
pIC50: −log10 of the molar value. Counter-ions that a name gives are not always drawn.
experimental endpoint: pIC50

Known pIC50 results, listed for orientation:
{"columns": ["molecule", "pIC50"],
 "data": [
  ["Cc1c(=O)n(Cc2ccccc2)c(=O)n2cc(C(=O)NCc3ccc4nsnc4c3)sc12", "< 4.52"],
  ["Cc1c(=O)n(Cc2ccc(Br)cc2)c(=O)n2cc(C(=O)NCc3ccncc3)sc12 [hydrochloride]", "< 4.52"],
  ["O=C(NCc1ccncc1)C1Cn2c(cc(=O)n(Cc3ccccc3)c2=O)S1 (stereo not drawn)", "< 4.00"],
  ["Cc1c(=O)n(Cc2ccc(C(=O)O)cc2)c(=O)n2cc(C(=O)NCc3ccc(F)cc3)sc12", "< 4.00"],
  ["Cc1c(=O)n(Cc2ccccc2)c(=O)n2cc(C(=O)NCc3ccc(F)cc3)sc12", "< 4.52"],
  ["COC(=O)Nc1cc(Cn2c(=O)c(C)c3sc(C(=O)NCc4ccc(F)cc4)cn3c2=O)on1", "< 4.52"],
  ["COc1cccc(CNC(=O)c2cn3c(=O)n(Cc4ccccc4)c(=O)c(C)c3s2)c1", "< 4.52"],
  ["Cc1c(=O)n(Cc2nccs2)c(=O)n2cc(C(=O)NCc3ccc(F)cc3)sc12 [hydrochloride]", "< 4.00"],
  ["O=C(NCc1ccncc1)c1cn2c(=O)n(Cc3ccccc3)c(=O)cc2s1 [hydrochloride]", "< 4.00"],
  ["Cc1c(=O)n(Cc2ccc(C(=O)OCCN(C)C)cc2)c(=O)n2cc(C(=O)NCc3ccncc3)sc12 [dihydrochloride]", "< 4.00"]
]}

Let us examine a further case.
Ask: Name the recorded pIC50 of the item "O=C(NCc1ccccc1)c1cn2c(=O)n(Cc3ccc(Cl)cc3)c(=O)cc2s1" in your answer.
Result: < 4.52
